The following molecules are listed with their measured log10 MIC values.
test system: Staphylococcus aureus X400; assay: MIC, standard agar-dilution assay (Table V); format: cell-based; conditions: Staphylococcus aureus, X400
Counter-ions that a name gives are not always drawn.
MEASURE: log10 MIC (log10 of the value in µg/mL)

>  <MOLECULE>
CCC1OC(=O)CC(O)C(C)C(OC2OC(C)C(O)C(N(C)C)C2O)C(CC=O)CC(C)C(=O)C=CC(C)=CC1CSC(C)=O (stereo not drawn) [Compound 7, 23-Deoxy-23-(acetyl)thio-OMT]

>  <log10 MIC>
-0.60

$$$$
>  <MOLECULE>
CCC1OC(=O)CC(O)C(C)C(OC2OC(C)C(O)C(N(C)C)C2O)C(CC=O)CC(C)C(=O)C=CC(C)=CC1CN (stereo not drawn) [Compound 9, 23-Deoxy-23-amino-OMT]

>  <log10 MIC>
0.90

$$$$
>  <MOLECULE>
CCC1OC(=O)CC(O)C(C)C(OC2OC(C)C(O)C(N(C)C)C2O)C(CC=O)CC(C)C(=O)C=CC(C)=CC1CSc1nnc(C)s1 (stereo not drawn) [Compound 3]

>  <log10 MIC>
-0.60

$$$$
>  <MOLECULE>
CCC1OC(=O)CC(O)C(C)C(OC2OC(C)C(O)C(N(C)C)C2O)C(CC=O)CC(C)C(=O)C=CC(C)(OCCc2ccccc2)C2CC12 (stereo not drawn) [Compound 18]

>  <log10 MIC>
0.30

$$$$
>  <MOLECULE>
CCC1OC(=O)CC(O)C(C)C(OC2OC(C)C(O)C(N(C)C)C2O)C(CC=O)CC(C)C(=O)C=CC(C)=CC1CSc1nnnn1C (stereo not drawn) [Compound 5]

>  <log10 MIC>
-0.30

$$$$
>  <MOLECULE>
C=C1C=CC(=O)C(C)CC(CC=O)C(OC2OC(C)C(O)C(N(C)C)C2O)C(C)C(O)CC(=O)OC(CC)C2CC12 (stereo not drawn) [Compound 16]

>  <log10 MIC>
0.60

$$$$
>  <MOLECULE>
CCC1OC(=O)CC(O)C(C)C(OC2OC(C)C(O)C(N(C)C)C2O)C(CC=O)CC(C)C(=O)C=CC(C)=CC1CN=[N+]=[N-] (stereo not drawn) [Compound 8, 23-Deoxy-23-azido-OMT]

>  <log10 MIC>
-0.60

$$$$
>  <MOLECULE>
CCC1OC(=O)CC(O)C(C)C(OC2OC(C)C(O)C(N(C)C)C2O)C(CC=O)CC(C)C(=O)C=CC(C)=CC1CNC(=O)Cc1ccccc1 (stereo not drawn) [Compound 10, 23-Deoxy-23-N-(phenylacetyl)amino-OMT]

>  <log10 MIC>
0.00

$$$$
>  <MOLECULE>
CCC1OC(=O)CC(O)C(C)C(OC2OC(C)C(O)C(N(C)C)C2O)C(CC=O)CC(C)C(=O)C=CC(C)(OC)C2CC12 (stereo not drawn) [Compound 17]

>  <log10 MIC>
0.30

$$$$
>  <MOLECULE>
CCC1OC(=O)CC(O)C(C)C(OC2OC(C)C(O)C(N(C)C)C2O)C(CC=O)CC(C)C(=O)C=CC(C)=CC1CSc1n[nH]c(=O)c(=O)n1C (stereo not drawn) [Compound 6]

>  <log10 MIC>
0.90

$$$$
>  <MOLECULE>
CCC1OC(=O)CC(O)C(C)C(OC2OC(C)C(O)C(N(C)C)C2O)C(CC=O)CC(C)C(=O)C=CC(C)=CC1CNC(=O)[C@H](N)c1ccccc1 (single isomer, unassigned) [Compound 12, bis(trifluoroacetate) salt]

>  <log10 MIC>
0.90

$$$$
>  <MOLECULE>
CCC1OC(=O)CC(O)C(C)C(OC2OC(C)C(O)C(N(C)C)C2O)C(CC=O)CC(C)C(=O)C=CC(C)=CC1CF (stereo not drawn) [Compound 15, 23-Deoxy-23-fluoro-OMT]

>  <log10 MIC>
-0.30

$$$$
